Data provenance: patent US3998790A

Target Desc: peripheral vascular β-receptors (Felis catus)
Construct: from tissue; host or cells: vascular bed of the perfused leg of the anaesthetized, reserpinized cat, paw excluded (in vivo)
Sequence (Q9TST5 whole entry, the tested form may be a part): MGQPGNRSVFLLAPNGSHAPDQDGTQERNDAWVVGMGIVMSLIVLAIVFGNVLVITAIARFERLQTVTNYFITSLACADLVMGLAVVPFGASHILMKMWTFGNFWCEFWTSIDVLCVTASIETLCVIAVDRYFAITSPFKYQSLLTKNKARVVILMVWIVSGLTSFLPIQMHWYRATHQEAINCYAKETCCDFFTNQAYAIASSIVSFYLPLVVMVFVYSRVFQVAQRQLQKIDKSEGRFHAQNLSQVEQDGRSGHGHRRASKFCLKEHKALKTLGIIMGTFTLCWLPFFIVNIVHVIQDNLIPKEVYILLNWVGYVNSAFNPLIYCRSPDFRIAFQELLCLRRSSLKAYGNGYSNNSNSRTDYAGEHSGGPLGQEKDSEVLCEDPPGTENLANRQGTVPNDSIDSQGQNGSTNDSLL
Protocol Details: β-blocking activity on peripheral vascular resistance (vasodilator response to isoprenaline) in reserpinized cats
Type: in vivo, cat
Run Parameters: reserpinized cat, intravenous; dose producing 50% blockade of isoprenaline response; read-out: β-blockade peripheral vascular resistance ED50
Quantity Measured: ED50 (mg/kg)
// units = mg/kg; emit number, no label

Q: For CCOC(=O)NCCc1ccc(OCC(O)CNC(C)C)cc1 (stereo not shown) , what is its reported ED50?
A: 25

Q: Now the molecule CCOCc1ccc(OCC(O)CNC(C)C)cc1 (stereo not shown) [Ex. III]
A: 6

Q: Now the molecule COC(=O)NCCc1ccc(OCC(O)CNC(C)C)cc1 (stereo not shown) [(no label)]
A: 19

Q: Now the molecule CCOCCc1ccc(OCC(O)CNC(C)C)cc1 (stereo not shown) [Ex. II]
A: 4
